Numbers sourced from the supplement of paper PMC4466140.

Target: ScCyk3
Assay: SPOT peptide array binding signal intensity (averaged, normalized) (arbitrary units (background-subtracted, floor 0; scale differs between SH3 domains)); higher = stronger binding of the SH3 domain to the peptide
Observed Property: SPOT peptide array binding signal intensity
// no unit, no text: just the number

Examples from the recorded data:
Binder | Result
VFQFQMPTTPISTKM | 13
RSKRLFPVRPMATAH | 216
ERPKRRAPPPVPKKP | 2.5
SSSSSPPPLPTRRDH | 1

Note: attention shifts to another entry.
Give a short answer stating reported SPOT peptide array binding signal intensity for WRPRIVPILPYITRL .
33
